# test_target: GABARAP R67E
# Sequence (chain, as listed by the source R67E R67E limits assumed): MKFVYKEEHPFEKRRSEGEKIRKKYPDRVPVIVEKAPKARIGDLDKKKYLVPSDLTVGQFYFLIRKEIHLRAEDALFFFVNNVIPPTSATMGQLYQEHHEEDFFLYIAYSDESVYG
# test: ITC
measured_endpoint: pKd
The scale used: pKd is minus the common logarithm of the concentration in molar units.

[ask] Any idea what pKd was measured for VEEEWVIVSDEEIEEARQKAPLEITEY [AnkB LIR (AnkB WT peptide, human 440 kD AnkB residues 1588-1614)] ?
[reply] 7.25
